Target: AURKB (human)
Experiment: Caliper, Mobility shift assay off-chip
Conditions: compound 1.0 µM
TEST READOUT: inhibition (%)

Illustrative cases are given below, each with its answer.
Cn1cc(-c2cnc3ccc4ccc(CS(=O)(=O)CCc5ccccn5)cc4c(=O)c3c2)cn1    34.7
CN(c1ccc2ccc3ncc(-c4cnn(C)c4)cc3c(=O)c2c1)S(=O)(=O)NCc1ccccn1    80.7

1: O=C(CCc1ccc2ccc3ncc(C4CCNCC4)cc3c(=O)c2c1)NCc1ccccn1
2: Cn1cc(-c2cnc3ccc4ccc(CS(N)(=O)=O)cc4c(=O)c3c2)cn1
Ask | I would appreciate it if you could say which entry, 1 or 2 , has the lower inhibition value. # answer = label of selected item
Reply | 1

----------
Biological target: NEK2 (human) (UniProt P51955)
Sequence (P51955 whole entry, looked up): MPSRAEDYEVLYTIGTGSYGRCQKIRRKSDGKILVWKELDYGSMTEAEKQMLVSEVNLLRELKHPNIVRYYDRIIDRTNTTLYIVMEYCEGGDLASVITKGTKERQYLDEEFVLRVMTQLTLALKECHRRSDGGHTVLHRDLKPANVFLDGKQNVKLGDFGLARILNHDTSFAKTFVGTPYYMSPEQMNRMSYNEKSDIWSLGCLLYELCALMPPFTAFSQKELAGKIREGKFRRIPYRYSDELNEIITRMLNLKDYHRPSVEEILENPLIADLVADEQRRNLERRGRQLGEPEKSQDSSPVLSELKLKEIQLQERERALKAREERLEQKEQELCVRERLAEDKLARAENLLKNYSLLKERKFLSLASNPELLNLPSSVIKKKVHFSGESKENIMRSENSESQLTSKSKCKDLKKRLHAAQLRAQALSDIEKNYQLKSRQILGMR
Test: Caliper, Mobility shift assay off-chip
Conditions: compound 1.0 µM
TEST READOUT: inhibition (%)

As a guide, the following entries are already answered.
O=C(CCc1ccc2ccc3ncc(C4CCNCC4)cc3c(=O)c2c1)NCc1ccccn1    2.7
Cn1cc(-c2cnc3ccc4ccc(CS(=O)(=O)NCC5CCCCN5)cc4c(=O)c3c2)cn1 (stereo not given)    -2.2
CN(c1ccc2ccc3ncc(-c4cnn(C)c4)cc3c(=O)c2c1)S(=O)(=O)NCc1ccccn1    -4.9

P: Cn1cc(-c2cnc3ccc4ccc(CS(N)(=O)=O)cc4c(=O)c3c2)cn1
Q: Cn1cc(-c2cnc3ccc4ccc(CS(=O)(=O)CCc5ccccn5)cc4c(=O)c3c2)cn1
Ask | Which shows the larger inhibition value: P or Q ? The response must carry the label of the picked entry.
Reply | Q
(Q: -0.9%, P: -7.5%)

----------
Target: UniProtKB Q9UQB9
Sequence (Q9UQB9 whole entry, looked up): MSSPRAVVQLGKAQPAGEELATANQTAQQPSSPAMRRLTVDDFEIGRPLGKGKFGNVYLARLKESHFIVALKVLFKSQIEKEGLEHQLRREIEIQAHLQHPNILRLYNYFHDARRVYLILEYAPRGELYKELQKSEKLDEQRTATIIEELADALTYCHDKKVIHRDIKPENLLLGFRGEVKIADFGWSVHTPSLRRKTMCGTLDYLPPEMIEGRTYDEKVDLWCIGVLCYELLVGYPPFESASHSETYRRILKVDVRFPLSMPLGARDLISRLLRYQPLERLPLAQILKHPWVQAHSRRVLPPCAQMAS
Assay: Caliper, Mobility shift assay off-chip
Details: compound 1.0 µM
TEST READOUT: inhibition (%)

Cn1cc(-c2cnc3ccc4ccc(CS(=O)(=O)CCc5ccccn5)cc4c(=O)c3c2)cn1    55.5
CN(c1ccc2ccc3ncc(-c4cnn(C)c4)cc3c(=O)c2c1)S(=O)(=O)NCc1ccccn1    75.8

I: Cn1cc(-c2cnc3ccc4ccc(CS(N)(=O)=O)cc4c(=O)c3c2)cn1
II: O=C(CCc1ccc2ccc3ncc(C4CCNCC4)cc3c(=O)c2c1)NCc1ccccn1
Ask | Among I and II , which shows a numerically higher inhibition result? Your choice should be expressed through its label.
Reply | I

----------
Molecular target: MAPKAPK5 (human)
Assay: Caliper, Mobility shift assay off-chip
Conditions: compound 0.1 µM
TEST READOUT: inhibition (%)

1: O=C(CCc1ccc2ccc3ncc(C4CCNCC4)cc3c(=O)c2c1)NCc1ccccn1
2: CN(c1ccc2ccc3ncc(-c4cnn(C)c4)cc3c(=O)c2c1)S(=O)(=O)NCc1ccccn1
3: Cn1cc(-c2cnc3ccc4ccc(CS(=O)(=O)NC5CCCCC5)cc4c(=O)c3c2)cn1
Ask | # rank by inhibition, ascending (min first) Thanks in advance for listing the labels in the requested order.
Reply | 1, 3, 2

----------
System: ABL1 (human), P00519 [H396P]
Assay: Caliper, Mobility shift assay off-chip
Conditions: compound 0.1 µM
TEST READOUT: inhibition (%)

Take a look at these entries with their results.
O=c1c2cc(CS(=O)(=O)NCc3ccccn3)ccc2ccc2ncc(C3CCNCC3)cc12    -2.5
Cn1cc(-c2cnc3ccc4ccc(CS(=O)(=O)CCc5ccccn5)cc4c(=O)c3c2)cn1    10.6

1: CN(c1ccc2ccc3ncc(-c4cnn(C)c4)cc3c(=O)c2c1)S(=O)(=O)NCc1ccccn1
2: Cn1cc(-c2cnc3ccc4ccc(CS(N)(=O)=O)cc4c(=O)c3c2)cn1
3: Cn1cc(-c2cnc3ccc4ccc(CS(=O)(=O)NC5CCCCC5)cc4c(=O)c3c2)cn1
4: Cn1cc(-c2cnc3ccc4ccc(CS(=O)(=O)NCC5CCCCN5)cc4c(=O)c3c2)cn1 (configuration not stated)
5: O=C(CCc1ccc2ccc3ncc(C4CCNCC4)cc3c(=O)c2c1)NCc1ccccn1
Ask | Order the records by inhibition, with each subsequent value no larger than the one before. Order the labels as requested and list them.
Reply | 4, 5, 3, 2, 1

----------
Target: BTK (human) (UniProt Q06187)
Sequence (Q06187 whole entry, looked up): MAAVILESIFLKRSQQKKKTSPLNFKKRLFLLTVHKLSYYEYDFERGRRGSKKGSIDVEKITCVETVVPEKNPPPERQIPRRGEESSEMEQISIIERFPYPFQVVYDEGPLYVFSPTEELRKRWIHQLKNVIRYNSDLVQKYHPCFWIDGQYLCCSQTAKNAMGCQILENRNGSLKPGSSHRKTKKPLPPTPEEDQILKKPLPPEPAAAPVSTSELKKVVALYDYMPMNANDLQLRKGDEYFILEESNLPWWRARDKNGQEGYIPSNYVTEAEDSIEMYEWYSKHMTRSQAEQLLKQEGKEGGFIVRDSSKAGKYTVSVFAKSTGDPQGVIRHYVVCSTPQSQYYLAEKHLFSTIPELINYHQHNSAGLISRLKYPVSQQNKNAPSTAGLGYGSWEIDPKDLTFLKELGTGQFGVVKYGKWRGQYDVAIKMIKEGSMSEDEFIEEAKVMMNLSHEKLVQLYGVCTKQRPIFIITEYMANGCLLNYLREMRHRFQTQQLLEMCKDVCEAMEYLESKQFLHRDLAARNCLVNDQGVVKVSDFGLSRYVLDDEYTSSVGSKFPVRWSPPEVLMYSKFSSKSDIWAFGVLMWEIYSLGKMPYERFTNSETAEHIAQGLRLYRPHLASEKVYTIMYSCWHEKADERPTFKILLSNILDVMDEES
Test: Caliper, Mobility shift assay off-chip
Details: compound 1.0 µM
TEST READOUT: inhibition (%)

O=C(CCc1ccc2ccc3ncc(C4CCNCC4)cc3c(=O)c2c1)NCc1ccccn1    1.1
Cn1cc(-c2cnc3ccc4ccc(CS(=O)(=O)NCC5CCCCN5)cc4c(=O)c3c2)cn1 (centres undefined)    65

1: CN(c1ccc2ccc3ncc(-c4cnn(C)c4)cc3c(=O)c2c1)S(=O)(=O)NCc1ccccn1
2: Cn1cc(-c2cnc3ccc4ccc(CS(=O)(=O)CCc5ccccn5)cc4c(=O)c3c2)cn1
Ask | Given the listed items, does 1 or 2 have the lesser reported inhibition? Return value: the label identifying the chosen record.
Reply | 1
(1: 4.9%, 2: 22%)

----------
Biological target: PRKD1 (human) (UniProt Q15139)
Sequence (Q15139 whole entry, looked up): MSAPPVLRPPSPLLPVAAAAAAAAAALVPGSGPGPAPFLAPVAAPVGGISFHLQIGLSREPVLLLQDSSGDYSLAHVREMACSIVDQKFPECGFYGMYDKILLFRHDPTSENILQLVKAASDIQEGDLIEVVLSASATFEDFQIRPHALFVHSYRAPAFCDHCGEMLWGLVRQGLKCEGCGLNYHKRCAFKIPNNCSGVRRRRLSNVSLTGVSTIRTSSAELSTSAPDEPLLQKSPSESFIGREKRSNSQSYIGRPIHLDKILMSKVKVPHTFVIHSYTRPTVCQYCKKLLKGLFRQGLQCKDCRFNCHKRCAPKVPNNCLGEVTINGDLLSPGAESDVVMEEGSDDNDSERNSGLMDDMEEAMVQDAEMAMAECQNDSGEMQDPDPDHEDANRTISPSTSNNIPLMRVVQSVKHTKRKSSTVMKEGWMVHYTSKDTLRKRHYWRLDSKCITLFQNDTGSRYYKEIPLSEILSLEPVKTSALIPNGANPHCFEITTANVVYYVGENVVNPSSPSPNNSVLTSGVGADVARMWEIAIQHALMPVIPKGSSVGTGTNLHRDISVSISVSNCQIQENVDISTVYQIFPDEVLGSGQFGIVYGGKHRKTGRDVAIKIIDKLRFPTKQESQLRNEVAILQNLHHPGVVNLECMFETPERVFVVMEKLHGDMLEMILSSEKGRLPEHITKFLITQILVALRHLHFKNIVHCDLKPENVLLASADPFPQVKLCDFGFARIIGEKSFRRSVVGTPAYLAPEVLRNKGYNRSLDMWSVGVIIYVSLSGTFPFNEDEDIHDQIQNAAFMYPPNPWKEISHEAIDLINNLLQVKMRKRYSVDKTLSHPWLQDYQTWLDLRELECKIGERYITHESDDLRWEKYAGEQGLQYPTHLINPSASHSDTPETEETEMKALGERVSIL
Assay: Caliper, Mobility shift assay off-chip
Conditions: compound 1.0 µM
TEST READOUT: inhibition (%)

a: Cn1cc(-c2cnc3ccc4ccc(CS(=O)(=O)CCc5ccccn5)cc4c(=O)c3c2)cn1
b: O=C(CCc1ccc2ccc3ncc(C4CCNCC4)cc3c(=O)c2c1)NCc1ccccn1
Ask | Of the pair a and b , name the member with the lesser recorded inhibition. Your choice should be expressed through its label.
Reply | a

1: Cn1cc(-c2cnc3ccc4ccc(CS(N)(=O)=O)cc4c(=O)c3c2)cn1
2: CN(c1ccc2ccc3ncc(-c4cnn(C)c4)cc3c(=O)c2c1)S(=O)(=O)NCc1ccccn1
3: Cn1cc(-c2cnc3ccc4ccc(CS(=O)(=O)NCC5CCCCN5)cc4c(=O)c3c2)cn1 (stereo not given)
Ask | Endpoint returns the given compounds ordered by ascending inhibition. Respond with the label ranking, as requested.
Reply | 3, 1, 2

----------
Biological target: IKBKB (human) (UniProt O14920)
Sequence (O14920 whole entry, looked up): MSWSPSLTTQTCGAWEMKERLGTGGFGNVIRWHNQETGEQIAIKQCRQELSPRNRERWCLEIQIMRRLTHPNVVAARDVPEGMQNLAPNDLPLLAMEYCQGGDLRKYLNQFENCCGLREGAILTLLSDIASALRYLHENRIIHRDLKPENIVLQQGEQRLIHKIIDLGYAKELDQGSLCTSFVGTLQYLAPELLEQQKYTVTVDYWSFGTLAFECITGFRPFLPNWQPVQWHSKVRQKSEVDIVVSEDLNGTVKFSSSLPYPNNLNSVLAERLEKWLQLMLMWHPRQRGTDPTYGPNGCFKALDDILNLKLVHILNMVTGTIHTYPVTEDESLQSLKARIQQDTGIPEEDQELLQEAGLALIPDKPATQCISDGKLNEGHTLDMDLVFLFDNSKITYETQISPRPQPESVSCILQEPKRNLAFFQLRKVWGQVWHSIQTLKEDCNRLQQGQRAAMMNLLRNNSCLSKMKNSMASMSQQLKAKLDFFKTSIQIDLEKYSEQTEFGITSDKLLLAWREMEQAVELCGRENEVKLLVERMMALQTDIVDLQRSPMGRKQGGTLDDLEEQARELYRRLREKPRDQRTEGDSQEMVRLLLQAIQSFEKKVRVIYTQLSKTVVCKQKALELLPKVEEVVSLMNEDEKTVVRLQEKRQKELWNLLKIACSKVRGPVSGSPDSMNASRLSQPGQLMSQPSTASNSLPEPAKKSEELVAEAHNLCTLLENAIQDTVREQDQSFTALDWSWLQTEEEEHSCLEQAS
Assay: Caliper, Mobility shift assay off-chip
Details: compound 1.0 µM
TEST READOUT: inhibition (%)

1: Cn1cc(-c2cnc3ccc4ccc(CS(N)(=O)=O)cc4c(=O)c3c2)cn1
2: Cn1cc(-c2cnc3ccc4ccc(CS(=O)(=O)CCc5ccccn5)cc4c(=O)c3c2)cn1
3: O=C(CCc1ccc2ccc3ncc(C4CCNCC4)cc3c(=O)c2c1)NCc1ccccn1
4: CN(c1ccc2ccc3ncc(-c4cnn(C)c4)cc3c(=O)c2c1)S(=O)(=O)NCc1ccccn1
Ask | Order the entries above by descending inhibition. Answer by listing the labels in the order asked for.
Reply | 4, 1, 2, 3

----------
Molecular target: GSK3B (human)
Assay: Caliper, Mobility shift assay off-chip
Details: compound 0.1 µM
TEST READOUT: inhibition (%)

Cn1cc(-c2cnc3ccc4ccc(CS(=O)(=O)NC5CCCCC5)cc4c(=O)c3c2)cn1    1.3

I: O=c1c2cc(CS(=O)(=O)NCc3ccccn3)ccc2ccc2ncc(C3CCNCC3)cc12
II: Cn1cc(-c2cnc3ccc4ccc(CS(N)(=O)=O)cc4c(=O)c3c2)cn1
Ask | Which item exceeds the other in inhibition, I or II ? Pick one; state its label.
Reply | I
(I: -1%, II: -2.7%)

----------
Target: HCK (human)
Test: Caliper, Mobility shift assay off-chip
Conditions: compound 1.0 µM
TEST READOUT: inhibition (%)

Worked examples follow.
CN(c1ccc2ccc3ncc(-c4cnn(C)c4)cc3c(=O)c2c1)S(=O)(=O)NCc1ccccn1    14.6
Cn1cc(-c2cnc3ccc4ccc(CS(=O)(=O)CCc5ccccn5)cc4c(=O)c3c2)cn1    1.6

P: Cn1cc(-c2cnc3ccc4ccc(CS(N)(=O)=O)cc4c(=O)c3c2)cn1
Q: O=C(CCc1ccc2ccc3ncc(C4CCNCC4)cc3c(=O)c2c1)NCc1ccccn1
Ask | Kindly compare P with Q and tell me which has the lower inhibition figure. Your choice should be expressed through its label.
Reply | P
(P: -1.6%, Q: 3.1%)

----------
Molecular target: ABL1 (human)
Test: Caliper, Mobility shift assay off-chip
Conditions: compound 0.1 µM
TEST READOUT: inhibition (%)

Cn1cc(-c2cnc3ccc4ccc(CS(=O)(=O)NC5CCCCC5)cc4c(=O)c3c2)cn1    3.4

1: O=c1c2cc(CS(=O)(=O)NCc3ccccn3)ccc2ccc2ncc(C3CCNCC3)cc12
2: O=C(CCc1ccc2ccc3ncc(C4CCNCC4)cc3c(=O)c2c1)NCc1ccccn1
3: Cn1cc(-c2cnc3ccc4ccc(CS(=O)(=O)NCC5CCCCN5)cc4c(=O)c3c2)cn1 (configuration not stated)
4: Cn1cc(-c2cnc3ccc4ccc(CS(=O)(=O)CCc5ccccn5)cc4c(=O)c3c2)cn1
Ask | Order the records by inhibition, with each subsequent value no larger than the one before. Output spec: a listing of the labels in the requested order.
Reply | 3, 1, 4, 2

----------
Target: MARK3 (human)
Experiment: Caliper, Mobility shift assay off-chip
Settings: compound 0.1 µM
TEST READOUT: inhibition (%)

Cn1cc(-c2cnc3ccc4ccc(CS(N)(=O)=O)cc4c(=O)c3c2)cn1    -2.4
Cn1cc(-c2cnc3ccc4ccc(CS(=O)(=O)NC5CCCCC5)cc4c(=O)c3c2)cn1    -0.6
O=c1c2cc(CS(=O)(=O)NCc3ccccn3)ccc2ccc2ncc(C3CCNCC3)cc12    -2.2
CN(c1ccc2ccc3ncc(-c4cnn(C)c4)cc3c(=O)c2c1)S(=O)(=O)NCc1ccccn1    -1.8
Cn1cc(-c2cnc3ccc4ccc(CS(=O)(=O)CCc5ccccn5)cc4c(=O)c3c2)cn1    -7.9

P: Cn1cc(-c2cnc3ccc4ccc(CS(=O)(=O)NCC5CCCCN5)cc4c(=O)c3c2)cn1 (configuration not stated)
Q: O=C(CCc1ccc2ccc3ncc(C4CCNCC4)cc3c(=O)c2c1)NCc1ccccn1
Ask | I would appreciate it if you could say which entry, P or Q , has the lower inhibition value. Refer to your chosen entry by its label in the reply.
Reply | Q
(Q: 0.7%, P: 2%)

Provenance of the data: the kinase profiling compilation of Christmann-Franck et al. (2016)
